test.protocol: compound effects on differentiated 3T3-L1 adipocyte viability – cell-based, 3T3-L1 adipocytes, calcein-AM fluorescence, 48 h, basal, profiling panel (AID 1163); also: test concentration not given here
conditions.used: 3T3-L1 adipocytes viability, higher = more signal
property.label: z-score
Note: the reply should be a number with no unit written.

Req: May I ask what z-score has been recorded for `[N-]=[N+]=NCc1ccccc1C[C@]1(C(=O)NCCN2CCOCC2)N=C(c2ccc(OCCCO)cc2)O[C@H]1c1ccccc1` ?
Resp: 0.117

Req: # query: z-score of entry `COc1ccc([Si](C)(C)[C@@H]2[C@@H](CC(=O)N3Cc4ccccc4C[C@H]3CO)O[C@]3(C(=O)N(Cc4cccc(N5CCCCC5=O)c4)c4ccccc43)[C@H]2C)cc1`
Resp: 1.85

Req: What value of measured z-score is listed for CC(C)CCC[C@@H](C)[C@H]1CC[C@@]2(C)C3=C(CC[C@]12C)[C@@]1(C)CC[C@H](OC(=O)C(C)(C)C)C(C)(C)C1CC3 (some centres undefined) ?
Resp: 1.66

Req: Form field: reported z-score of `COC(=O)[C@@]1(Cc2ccccc2)[C@H]2c3cc(C(=O)N4CCCC4)n(Cc4ccccc4)c3C[C@H]2CN1C(=O)c1ccccc1`
Resp: 0.988

Req: For the compound shown here, `CN(C)CCCNC(=O)[C@@]1(Cc2ccccc2I)c2ccccc2C(=O)N(Cc2ccccc2Cl)[C@H]1c1ccc(CO)cc1` , give the reported z-score.
Resp: 0.711

Req: Name the recorded z-score for COc1cc(C(O)C2C=CC3C(=O)NC(=O)C3N2Nc2ccc(Cl)cc2Cl)cc(OC)c1OC (centres undefined) .
Resp: 0.349

Req: Quick one: z-score of `O=[N+]([O-])c1ccc(C[n+]2ccc(-c3ccc(CO)cc3)cc2)o1` ?
Resp: 0.511

Req: Please report the recorded z-score for `COCCOC(=O)N1C(=O)[C@@]2(c3cc(C#CCNC(N)=O)ccc31)[C@H](c1ccc(OCCO)cc1)N1[C@H](c3ccccc3)[C@H](c3ccccc3)OC(=O)[C@H]1[C@@H]2C(=O)N1CCN(c2ncccn2)CC1` .
Resp: 0.169

Req: // query z-score value for entry CCN(CC)c1ccc(N2CC=CC34O[C@@H]5/C=C\CCCOC(=O)C5[C@H]3C(=O)N(CCCCCCO)[C@@H]4C2=O)cc1 (some centres undefined)
Resp: 0.554

Req: I'd like to know its z-score. The compound in question is `CCCN1C(=O)[C@@H]2Cc3c([nH]c4ccccc34)[C@@H](c3cccc(O)c3)N2C1=O`
Resp: 0.407

Req: For the compound shown here, `O=C1O[C@@H](c2ccccc2)[C@@H](c2ccccc2)N2[C@@H](c3ccc(O)cc3)[C@]3(C(=O)Nc4ccc(C#CC5(O)CCCCCC5)cc43)[C@@H](C(=O)N3CCN(c4ncccn4)CC3)[C@H]12` , give the reported z-score.
Resp: 0.292

Req: Need z-score, item CN1C(=O)C2C=CC(C(O)COCc3ccccc3)N(Nc3ccccc3)C2C1=O (centres undefined)
Resp: -1.24

Req: I'd like to know its z-score. The compound in question is CCCCC(CC)C(O)C1C=CC2C(=O)NC(=O)C2N1Nc1ccccn1 (centres undefined)
Resp: -0.131

Req: // z-score lookup, key: `COCCOC(=O)N1C(=O)[C@@]2(c3cc(C#CCCO)ccc31)[C@H](C(=O)N1CCc3cc(OC)c(OC)cc3C1)[C@H]1C(=O)O[C@H](c3ccccc3)[C@H](c3ccccc3)N1[C@@H]2c1ccc(OCCO)cc1`
Resp: 1.05
